# ED50 listing for each entry below
system: hot plate; test: Mouse hot plate analgesic testing (HP); assay type: in vivo, mice; details: Mus musculus; hot plate, mice

| Compound | Comparison Operator | ED50, mg/kg |
| --- | --- | --- |
| CC(CCCc1ccccc1)c1cc(O)c2c(c1)OC(C)(C)[C@@H]1CC[C@@H](O)C[C@@H]21 (relative stereo) | = | 0.75 |
| CC(CCCCc1ccccc1)c1cc(O)c2c(c1)OC(C)(C)[C@@H]1CC[C@@H](O)C[C@@H]21 (relative stereo) | = | 3.9 |
| CC(CCCc1ccccc1)Oc1cc(O)c2c(c1)OC(C)(C)[C@@H]1CC[C@@H](O)C[C@@H]21 (relative stereo) | = | 0.76 |
| CC(CCc1ccccc1)c1cc(O)c2c(c1)OC(C)(C)[C@@H]1CC[C@@H](O)C[C@@H]21 (relative stereo) | > | 10 |
| CCCCCC(C)C(C)c1cc(O)c2c(c1)OC(C)(C)[C@@H]1CC[C@@H](O)C[C@@H]21 (relative stereo) [CH(CH3)CH(CH3)C5 H11, reference compound] | = | 1.1 |

* * *

system: hot plate; assay: Mouse hot plate analgesic testing (HP); format: in vivo, mice; conditions: Mus musculus; hot plate, mice
# ED50 listing for each entry below

| Compound | System | ED50 |
| --- | --- | --- |
| CCCCCc1cc(O)c2c(c1)OC(C)(C)[C@@H]1CC[C@@H](O)C[C@@H]21 (relative stereo) [C5 H11, reference compound] | hot plate | ≥ 17.8 mg/kg |
| CC1(C)Oc2cc(OC3CCCCC3)cc(O)c2[C@@H]2C[C@H](O)CC[C@H]21 (relative stereo) | hot plate | > 10 mg/kg |
| CCCCCC(C)Oc1cc(O)c2c(c1)OC(C)(C)[C@@H]1CC[C@@H](O)C[C@@H]21 (relative stereo) | hot plate | 1.2 mg/kg |
